Experiment: qHTS of pediatric cancer cell lines to identify multiple opportunities for drug repurposing: Primary screen for RD cells (AID 1347104); further: nearly all actives have a fitted effect of over 55% in size
Settings: RD rhabdomyosarcoma viability, CellTiter-Glo luminescence, 48 h; series mostly up to 46 µM
Records with an inconclusive call do not appear. The source made the active and inactive calls. The call rests on the fitted dose curve; in most records, active means well fitted cell-killing curve with a large enough effect; inconclusive means small, poorly fitted or top-dose-only effect; inactive means flat fitted curve, though single readings scatter.
Your reply should match one of these outcome classes. active, inactive

compound=Cn1cncc1[C@@](N)(c1ccc(Cl)cc1)c1ccc2c(c1)c(-c1cccc(Cl)c1)cc(=O)n2C classification=active

Next item in the queue.
Per the records of this test, what outcome belongs to "Nc1ccccc1NC(=O)c1ccc(CNc2nccc(-c3cccnc3)n2)cc1" ? active

====

Assay: Quantitative High-Throughput drug screen in 47 multiple myeloma cell lines against the NCATS MIPE library collection: KMS28BM_JCRB cell viability assay (AID 1919874); further: nearly all actives have a fitted effect of over 35% in size
Conditions: CellTiter-Glo ATP, 48 h; series mostly up to 45.8 µM
Records with an inconclusive call do not appear. Calls of active or inactive are those of the source. Calls come from the whole dose curve; as a rule, active = well fitted cell-killing curve with a large enough effect; inconclusive = small, poorly fitted or top-dose-only effect, or effect the other way; inactive = no such curve, though single readings can be large or run the other way.
// one of active, inactive, no free text

Completed entries (count: 5):
smiles_entry=CN1CCN(c2ccc3nc(-c4c(N)c5c(F)cccc5[nH]c4=O)[nH]c3c2)CC1 classification=active
smiles_entry=Cc1ccc(-c2ncn(-c3ccc(Nc4nccc(-c5cccc(N6CCOCC6)c5)n4)cc3)n2)cn1 classification=active
smiles_entry=O=C(O)CCCc1c[nH]c2ccccc12 classification=inactive
smiles_entry=CC(C)(C)c1cnc(CSc2cnc(NC(=O)C3CCNCC3)s2)o1 classification=active
smiles_entry=Cc1cc(CN2CCN(c3c(Br)cnc4nc(-c5ccc(N6CCN(C)CC6)cc5)[nH]c34)CC2)no1 classification=active

Could you kindly confirm the outcome this assay logged for "CC(C)Nc1cc(C(F)(F)F)cc2nc(NC(=O)c3cccnc3)nn12" ? inactive

Can you check "Clc1cccc(-n2nnnc2NCc2ccccc2Oc2ccccn2)c1Cl" next? inactive

====

Assay: qHTS of pediatric cancer cell lines to identify multiple opportunities for drug repurposing: Primary screen for U-2 OS cells (AID 1347096); further: nearly all actives have a fitted effect of over 50% in size
Details: U-2 OS viability, CellTiter-Glo luminescence, 48 h; series mostly up to 46 µM
Records with an inconclusive call do not appear. Active and inactive are the calls of the source. The call rests on the fitted dose curve; in most records, active means well fitted cell-killing curve with a large enough effect; inconclusive means small, poorly fitted or top-dose-only effect; inactive means flat fitted curve, though single readings scatter.
Lab note: assign the record to one of class 1 = active, class 0 = inactive

smiles_entry=O=C(O)CO.[NH2-].[NH2-].[Pt+2] classification="class 0"
smiles_entry=CC1(C)O[C@@H]2C[C@@H]3[C@H]4C[C@@H](F)C5=CC(=O)C=C[C@]5(C)[C@@]4(F)[C@@H](O)C[C@]3(C)[C@]2(C(=O)CO)O1 classification="class 0"
smiles_entry=COc1cc(Nc2ncc(F)c(Nc3ccc4c(n3)N(COP(=O)(O)O)C(=O)C(C)(C)O4)n2)cc(OC)c1OC classification="class 1"
smiles_entry=Cc1cc(Nc2cc(N3CCN(C)CC3)nc(Sc3ccc(NC(=O)C4CC4)cc3)n2)n[nH]1 classification="class 0"

Kindly consider the entry below.
What classification did "CC(C)c1nn(-c2c(Cl)cccc2Cl)c2nc(Cc3ccc(OCCO)cc3)[nH]c(=O)c12" end up with in this test? class 0

====

Test: Quantitative High-Throughput drug screen in 47 multiple myeloma cell lines against the NCATS MIPE library collection: ARP1_JJKsccF8 cell viability assay (AID 1918928; further: nearly all actives have a fitted effect of over 40% in size;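 on viability: 100% = DMSO only wells and 0% = medium only wells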)
Conditions: ARP1 myeloma cells viability, CellTiter-Glo ATP, 48 h; series mostly up to 45.8 µM
Records with an inconclusive call do not appear. Calls of active or inactive are those of the source. Calls come from the whole dose curve; as a rule, active = well fitted cell-killing curve with a large enough effect; inconclusive = small, poorly fitted or top-dose-only effect, or effect the other way; inactive = no such curve, though single readings can be large or run the other way.
Hi! Could you answer with just one of these? yes (1) (active), no (0) (inactive)

compound=C=CC(=O)Nc1cc2c(Nc3ccc(F)c(Cl)c3)ncnc2cc1C#CC(C)(C)N1CCN(C)CC1 classification="yes (1)"
compound=O=C(NCCS(=O)(=O)c1ccc(C(F)(F)F)cn1)c1ccc(Cl)cc1 classification="no (0)"
compound=CC(=O)c1c(C)c2cnc(Nc3ccc(N4CCNCC4)cn3)nc2n(C2CCCC2)c1=O classification="yes (1)"

Then this compound:
What classification did "CN(C)c1nc(Cc2ccc(NC(=O)c3ccc4ccccc4c3)cc2)nc(Cl)c1CC(=O)O" end up with in this test? no (0)

Entry source: PubChem BioAssay (NCATS)
